System: SW-620
Assay: NCI tumour cell line growth inhibition, 48 h
In all, about 58,000 sequences went through this assay and about 4,600 (7.9%) were called active. The sample holds actives, similar sequences and a random draw of the others, so the mix is not that of the screen. Entries with a potency or affinity are not part of this list.
Quick list: GI50 per entry.
Numeric answer only, unit nM assumed.

Task: Specify GI50 for [Bis(aminomethyl)tetramethylenesilane]tetrachloropaltinum(IV), CHEMBL2146189 and stop.
Result: 1490

Task: Specify GI50 for [Bis(aminomethyl)ethylmethylsilane]tetrachloroplatinum(IV), CHEMBL2146192 and stop.
Result: 1020

Task: Specify GI50 for [Bis(aminomethyl)diethylsilane]tetrachloroplatinum(IV), CHEMBL2146203 and stop.
Result: 483

Task: Specify GI50 for [Bis(aminomethyl)dimethylsilane]dichloroplatinum (II), CHEMBL2146201 and stop.
Result: 4860

Ref: ChEMBL document CHEMBL1201862
